These entries and their values trace back to ChEMBL document CHEMBL1201862.

- Test system: NCI-H522
- Experimental Details: NCI tumour cell line growth inhibition, 48 h
Active and inactive are the calls of the source. Rule as the data show it: active = GI50 up to about 1.1 µM and inactive = higher.
Metric Name: GI50

Recorded result, CCCCCCCCCCNC(=S)OCCCC , GI50: 18.6 µM (inactive)

Entry C=C1C(C)C2C(Cc3ccccc3)NC(=O)C23C(OC(C)=O)C=CC(C)(O)C(=O)C(C)C/C=C/C3C1O (centres undefined) , GI50 reported as 2.43 µM (inactive)

Measured GI50, CCSC(SCC)=C1C(=O)N(c2ccccc2)N=C1C : 1.95 µM (inactive)

# GI50 of Cc1cc2nc3c(C(OC4OC(CO)C(O)C(O)C4O)C(O)CO)nn(-c4ccccc4)c3nc2cc1C (centres undefined) = > 100 µM (inactive)

// recorded GI50 for C=CCNC1=C2C[C@@H](C)C[C@@H](OC)[C@@H](OC(=O)CCCN)[C@H](C)/C=C(\C)[C@@H](OC(N)=O)[C@H](OC)/C=C\C=C(/C)C(=O)NC(=CC1=O)C2=O : 6.82 µM (inactive)

Reported GI50 ( Cc1cc(=O)oc2c(OS(C)(=O)=O)c(OS(C)(=O)=O)ccc12 ) = > 100 µM (inactive)

Measured GI50 of CCCCNC(=S)Nc1nc(C(=O)NNC(=O)c2ccccc2)cs1 : 19.3 µM (inactive)

Data point: COc1ccc2c(c1OC)C[C@@H]1c3c(cc4c(c3-2)OCO4)CCN1C ; GI50 = 19.9 µM (inactive)

The recorded GI50 for entry CCOC(=O)c1cc(C2(OC)CCN(Cc3ccccc3)C2=O)c(-c2cc(C)no2)[nH]1 (centres undefined) equals > 100 µM (inactive)

----------
- Test system: SW-620
- Experimental Details: NCI tumour cell line growth inhibition, 48 h
The source made the active and inactive calls. Rule as the data show it: active = GI50 up to about 1.1 µM and inactive = higher.
Please provide measured GI50 for the entries that follow.

// sample Cc1c(/C=N/NC(=S)N2CCCCC2)c(=O)n(-c2ccccc2)n1C , its GI50 was 74.1 µM (inactive)

GI50 reported for this compound CC(=O)OC1CC2C(C)(C)C(=O)C=C[C@]2(C)C2CCC3(C)C(c4ccoc4)C(=O)[C@H]4O[C@]43[C@]12C (stereo partly specified) : 28.5 µM (inactive)

The compound COc1ccc(Cc2nn(C3OC(COC(C)=O)C(OC(C)=O)C(OC(C)=O)C3OC(C)=O)c(=S)n(-c3ccc(OC)cc3)c2=O)cc1 (stereo unspecified) showed GI50 equal to > 100 µM (inactive)

Field GI50 (entry Cc1ccc(S(=O)(=O)Nc2cccc3c(=O)nc[nH]c23)cc1 ) reads > 100 µM (inactive)

Quick note, GI50 for COC(=O)c1ccccc1/C=C1\Cc2ccc(C)c(C)c2C1=O landed at > 100 µM (inactive)

GI50 recorded for this compound, CCNC1=C(NC(=O)CCl)C(=O)c2ccccc2C1=O , is 25.8 µM (inactive)

Lab book: GI50 of CC(C(O)c1ccccc1)N(C)/N=N/c1nc2c([nH]1)c(=O)n(C)c(=O)n2C (stereo unspecified) noted as > 100 µM (inactive)

Note to self: GI50 recorded for CCC1c2[nH]c3ccccc3c2C[C@H]2C(=O)NC(Cc3c[nH]c4ccccc34)C(=O)N12 (stereo partly specified) was 38.5 µM (inactive)

Recorded result, CCC(C)C(N)C(=O)NC(CC(N)=O)C(=O)NC(CC(C)C)C(=O)NC(CCCCN)C(=O)NC(C)C(=O)NC(CC(C)C)C(=O)NC(C)C(=O)NC(C)C(=O)NC(CC(C)C)C(=O)NC(C)C(=O)NC(CCCCN)C(=O)NC(CCCCN)C(=O)NC(C(=O)NC(CC(C)C)C(N)=O)C(C)CC (stereo unspecified) , GI50: 20.4 µM (inactive)

GET /value?item= c1nc(NCCc2c[nH]cn2)c2nc[nH]c2n1 &field=GI50 returns > 100 µM (inactive)

Please fill in: GI50 reported for O=C(O)CN1CCN(CC(=O)N2CCN(C(=O)OCc3ccccc3)CC2)CCN(CC(=O)O)CCN(CC(=O)N2CCN(C(=O)OCc3ccccc3)CC2)CC1 = > 100 µM (inactive)

Per the records, this compound ( CCOC(=O)CSc1nnc2cc(CN3CCCC3)c(-c3ccc(Cl)cc3)nn12 ) has GI50 equal to > 100 µM (inactive)

// field: GI50; key: O=C(NCCN1CCCCC1)c1ccc(I)cc1 ; value = > 100 µM (inactive)

Form field GI50, entry FC(F)(F)c1ccc(/C=N/C23CC4CC(CC(C4)C2)C3)cc1 : > 100 µM (inactive)

compound CCOC(=O)C1=CC(C)(C(=O)OCC)Nc2c(nc(SC)[nH]c2=O)N1 (stereo unspecified) , GI50 observed: > 10 µM (inactive)

Sure, the documented GI50 for Oc1ccc[nH]c1=[Se] is 77.6 µM (inactive)
